Hi there, I'd appreciate the recorded IC50 for every entry that follows.
Molecular target: UniProt Q92769
Sequence (Q92769 whole entry): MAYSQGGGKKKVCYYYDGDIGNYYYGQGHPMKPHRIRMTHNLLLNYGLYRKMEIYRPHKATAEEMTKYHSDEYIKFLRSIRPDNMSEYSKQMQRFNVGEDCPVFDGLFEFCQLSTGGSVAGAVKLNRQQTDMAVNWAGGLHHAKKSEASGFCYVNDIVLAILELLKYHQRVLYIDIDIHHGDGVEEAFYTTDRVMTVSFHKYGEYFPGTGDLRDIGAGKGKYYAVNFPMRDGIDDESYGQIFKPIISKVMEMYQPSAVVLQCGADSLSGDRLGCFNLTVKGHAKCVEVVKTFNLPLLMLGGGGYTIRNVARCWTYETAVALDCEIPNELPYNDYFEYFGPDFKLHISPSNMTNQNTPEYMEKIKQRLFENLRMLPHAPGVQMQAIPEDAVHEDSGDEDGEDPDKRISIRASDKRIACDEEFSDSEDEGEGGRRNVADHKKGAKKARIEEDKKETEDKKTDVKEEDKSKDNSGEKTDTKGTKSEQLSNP
Assay: Inhibition of human full length recombinant HDAC2 expressed in baculovirus infected Sf9 cells using RHKKAc as substrate preincubated for 5 to 10 mins followed by substrate addition and measured after 2 hrs by fluorescence based analysis

Please review the following examples before continuing.
Cc1onc(-c2ccccc2)c1C=CCCCCCNC(=O)C(C)S (mixture of isomers) = > 30 µM
Cc1onc(-c2ccccc2)c1/C=C/c1ccc(CNC(=O)C(C)S)cc1 (racemic) = > 30 µM
Cc1noc(-c2ccccc2)c1C#CCCCCCNC(=O)C(C)(C)S = > 30 µM
Cc1onc(-c2ccccc2)c1C(=O)NCCCCCNC(=O)C(C)(C)S = > 30 µM

Items follow; give IC50 for each.
1. Cc1noc(-c2cccc(F)c2)c1C#CCCCCCNC(=O)C(C)S (racemic)
2. Cc1onc(-c2ccccc2)c1C(=O)NCCCCCNC(=O)C(C)S (racemic)
3. Cc1onc(-c2ccccc2)c1C=CCCCCCNC(=O)C(C)(C)S (mixture of isomers)
4. Cc1noc(-c2ccccc2)c1C#CCCCCCNC(=O)C(C)S (racemic)
5. Cc1onc(-c2ccccc2)c1/C=C/c1ccc(CNC(=O)C(C)(C)S)cc1

Reply:
["9.4 µM", "> 30 µM", "> 30 µM", "7.5 µM", "> 30 µM"]

// recorded IC50 for `Cc1onc(-c2ccccc2)c1C(=O)NCCCCCNC(=O)[C@H](C)S` : > 30 µM

---

Assay: Stability in rat liver microsomes assessed as half life
Type: ADME, Microsome
MEASUREMENT TYPE: half-life
Give the value; after it, write the unit.

O=C(CS)NCCCCCC(=O)Nc1cccc2cccnc12 = 1.1 h

The reported value for `CN(C)c1ccc(C(=O)NCCCCCNC(=O)CS)cc1` in terms of half-life is 1.17 h

---

Biological target: Polyamine deacetylase HDAC10 (Homo sapiens)
Sequence (Q969S8 whole entry): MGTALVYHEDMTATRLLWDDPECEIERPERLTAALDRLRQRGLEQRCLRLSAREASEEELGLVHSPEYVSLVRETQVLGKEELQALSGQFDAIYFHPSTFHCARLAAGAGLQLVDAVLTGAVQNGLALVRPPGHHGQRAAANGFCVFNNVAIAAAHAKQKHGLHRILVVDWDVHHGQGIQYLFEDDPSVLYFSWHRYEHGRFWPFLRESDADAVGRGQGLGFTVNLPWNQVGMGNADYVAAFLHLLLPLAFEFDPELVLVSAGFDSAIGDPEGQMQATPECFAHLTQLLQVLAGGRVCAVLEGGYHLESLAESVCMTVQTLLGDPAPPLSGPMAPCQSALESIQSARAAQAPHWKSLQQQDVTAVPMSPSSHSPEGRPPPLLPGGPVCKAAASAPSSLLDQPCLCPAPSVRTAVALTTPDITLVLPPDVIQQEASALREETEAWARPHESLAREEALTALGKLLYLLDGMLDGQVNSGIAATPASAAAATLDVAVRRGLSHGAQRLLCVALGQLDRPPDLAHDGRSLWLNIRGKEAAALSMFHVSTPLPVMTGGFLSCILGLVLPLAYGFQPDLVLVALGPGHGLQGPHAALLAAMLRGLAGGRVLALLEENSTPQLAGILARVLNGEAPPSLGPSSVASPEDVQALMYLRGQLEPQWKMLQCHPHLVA
Experiment: Inhibition of human HDAC10 using FAM-labeled acetylated peptide as substrate incubated for 17 hrs by fluorescence based assay
Can you tell me IC50 for the items I'm about to list?
Answers are plain numbers, in µM.

NCC(=O)Nc1ccccc1-c1ccc(NC(=O)CCCCCNC(=O)CS)cc1 = 7.43

# IC50 (molecule: `N[C@@H](Cc1ccccc1)C(=O)Nc1ccccc1-c1ccc(NC(=O)CCCCCNC(=O)CS)cc1` ) is 7.22
